# study-system: recombinant human HPK1 (Homo sapiens (Human))
# Sequence (Q92918 whole entry): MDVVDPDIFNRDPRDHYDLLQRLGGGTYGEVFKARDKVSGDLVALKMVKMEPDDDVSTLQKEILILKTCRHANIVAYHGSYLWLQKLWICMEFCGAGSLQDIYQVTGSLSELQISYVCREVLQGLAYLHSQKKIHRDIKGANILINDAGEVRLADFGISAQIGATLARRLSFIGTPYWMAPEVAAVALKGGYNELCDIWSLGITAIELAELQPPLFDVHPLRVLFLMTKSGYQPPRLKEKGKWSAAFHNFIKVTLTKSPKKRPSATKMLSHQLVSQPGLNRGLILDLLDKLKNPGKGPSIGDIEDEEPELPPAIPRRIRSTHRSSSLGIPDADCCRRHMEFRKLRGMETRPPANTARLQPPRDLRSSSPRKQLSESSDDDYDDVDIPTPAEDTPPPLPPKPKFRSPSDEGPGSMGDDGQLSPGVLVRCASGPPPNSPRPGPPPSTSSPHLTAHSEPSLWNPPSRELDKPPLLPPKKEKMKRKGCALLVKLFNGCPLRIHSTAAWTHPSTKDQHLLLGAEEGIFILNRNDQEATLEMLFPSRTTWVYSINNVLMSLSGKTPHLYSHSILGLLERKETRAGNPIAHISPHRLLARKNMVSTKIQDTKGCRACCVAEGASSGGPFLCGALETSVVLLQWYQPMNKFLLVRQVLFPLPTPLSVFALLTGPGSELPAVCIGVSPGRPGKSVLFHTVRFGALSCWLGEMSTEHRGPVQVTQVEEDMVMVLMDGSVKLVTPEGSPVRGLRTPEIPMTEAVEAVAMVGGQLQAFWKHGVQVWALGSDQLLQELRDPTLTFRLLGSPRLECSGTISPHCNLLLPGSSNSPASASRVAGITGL
# test-details: HPK1 kinase assay (Promega ADP-Glo kinase assay)
# conditions-used: In vitro activity against HPK1, 5 ng HPK1, MBP substrate, ATP 25 μM, 30° C. 40 minutes
Where a name gives a salt, the structure may show the parent alone.
Could you please report measured IC50 for the items listed next?

Query string: Quote recombinant human HPK1 (Homo sapiens (Human)) IC50 for entry CC(=O)Nc1cn2cc(-c3c(Cl)c(F)c(OC4CNC4)c4[nH]ncc34)ncc2n1 [Example 147, formate] .
Result string: 501 to 1000 nM

Query string: Provide IC50, recorded with recombinant human HPK1 (Homo sapiens (Human)), of CCN(CC)C(=O)[C@H]1C[C@H]1C(=O)Nc1cn2cc(-c3c(Cl)c(F)c(NC(C)C)c4[nH]ncc34)ncc2n1
Result string: < 100 nM

Query string: Print recombinant human HPK1 (Homo sapiens (Human)) IC50 for CC(C)N(c1c(F)c(Cl)c(-c2cn3cc(NC(=O)[C@@H]4C[C@@H]4F)nc3cn2)c2cn[nH]c12)C1OC(C(=O)O)C(O)C(O)C1O (stereo partly drawn) .
Result string: < 100 nM
